# Tested on: Mus musculus
# Measurement Description: Anticonvulsant activity in Swiss albino mouse assessed as protection against subcutaneous pentylenetetrazol-induced seizures at 390 umol/kg, ip administered 30 mins before pentylenetetrazole challenge measured after 30 mins
# Format: functional
Assay Readout: Activity (%)
Numeric answer only, unit % assumed.

Query :: Form field: Activity recorded for CC(C)(C)C1=NN(C(=O)Nc2ccc(F)cc2)C(c2ccc3c(c2)OCO3)C1 (racemic) with Mus musculus (enter value)
Result :: 33

Query :: And for CC(C)(C)C(/C=C/c1ccc2c(c1)OCO2)=N/NC(=O)Nc1ccc(F)cc1 ?
Result :: 50

Query :: Quick one: Cc1ccc(NC(=O)N2N=C(C(C)(C)C)CC2c2ccc3c(c2)OCO3)cc1 (racemic)
Result :: 83

Query :: Request: Cc1ccccc1NC(=O)N1N=C(C(C)(C)C)CC1c1ccc2c(c1)OCO2 (racemic)
Result :: 16

Query :: Please give the result for Cc1ccc(NC(=O)N/N=C(\C=C\c2ccc3c(c2)OCO3)C(C)(C)C)cc1 too.
Result :: 16

Query :: Lookup CC(C)(C)C1=NN(C(=O)c2ccc(Cl)cc2)C(c2ccc3c(c2)OCO3)C1 (racemic)
Result :: 50

Query :: Similarly, Cc1ccccc1NC(=O)N/N=C(\C=C\c1ccc2c(c1)OCO2)C(C)(C)C ?
Result :: 83

Origin of measurements: ChEMBL document CHEMBL2163283
